Tested on: H9
Test: Concentration of compound which inhibits virus replication of HIV by 50% (EC50 of 10 uM) in acutely infected H9 lymphocyte cells was determined
Format: functional, cell-based
Conditions: Homo sapiens
pEC50: −log10 of the molar value.
REPORTED PROPERTY: pEC50

The examples below pair each entry with its known result.
> print(dat)
                                   compound  reported.property  value.measured
1  OCc1cc(OCc2ccccc2)c(OCc2ccccc2)c(O)c1-c1c(CO)cc(OCc2ccccc2)c(OCc2ccccc2)c1O              pEC50            5.22
2  COc1c(OCc2ccccc2)c(OCc2ccccc2)cc(CBr)c1-c1c(CBr)cc(OCc2ccccc2)c(OCc2ccccc2)c1OC              pEC50            4.89

a = COc1c(OCc2ccccc2)c(OCc2ccccc2)cc(C=O)c1-c1c(C=O)cc(OCc2ccccc2)c(OCc2ccccc2)c1OC
b = Cc1cn([C@H]2C[C@H](N=[N+]=[N-])[C@@H](CO)O2)c(=O)[nH]c1=O [ZIDOVUDINE]
c = O=Cc1cc(OCc2ccccc2)c(OCc2ccccc2)c(OCc2ccccc2)c1-c1c(C=O)cc(OCc2ccccc2)c(OCc2ccccc2)c1OCc1ccccc1
d = COc1c(OCc2ccccc2)c(OCc2ccccc2)cc(CO)c1-c1c(CO)cc(OCc2ccccc2)c(OCc2ccccc2)c1OC
Ask: Order these by pEC50, descending, and give the full ranking. Please respond by ranking the labels in the order requested.
Reply: b, a, d, c
